System: S. epidermidis C621
Assay type: cell-based, Staphylococcus epidermidis
PARTICULARS: Table 15
No end group written: not given here.
Give MIC S. epidermidis C621 for every item shown.

Here are 2 substances together with their reported answers.
{"SUBSTANCE": "KFKKLAKKF-NH2 [P174 (135)]", "QUANTITY MEASURED": "MIC S. epidermidis C621", "RESULT": "> 128 µg/mL"}
{"SUBSTANCE": "FALALKA-NH2 [P141 (103)]", "QUANTITY MEASURED": "MIC S. epidermidis C621", "RESULT": "> 128 µg/mL"}

# batch: return MIC S. epidermidis C621 for each of the 6 substances below
1. FAKGVGKVGKKAL-NH2 [P137 (99)]
2. VALALKALKKL-NH2 [P180 (141)]
3. KFKKLAKKW-NH2 [P175 (136)]
4. FAKLLAKLAKKAA-NH2 [P93 (59)]
5. FAKIIAKIAKKI-NH2 [P143 (105)]
6. YAKLLAKLAKKAL-NH2 [P155 (117)]

Resp:
1: > 128 µg/mL; 2: > 128 µg/mL; 3: > 128 µg/mL; 4: > 128 µg/mL; 5: > 128 µg/mL; 6: > 128 µg/mL

# batch: return MIC S. epidermidis C621 for each of the 4 substances below
1. FALAKALKKAL-NH2 [P166 (127)]
2. FAKKLAKKLAKAAL-NH2 [P76 (52)]
3. FAKLLAKAFKKAL-NH2 [P114 (78)]
4. FAKLLAKKLL-NH2 [P57 (37)]

Resp:
["> 128 µg/mL", "> 128 µg/mL", "64 µg/mL", "> 128 µg/mL"]

# batch: return MIC S. epidermidis C621 for each of the 2 substances below
1. KWKLAKKALALL-NH2 [P142 (104)]
2. FAKAIAKIAFGKGIGKVGKKLL-NH2 [P134 (96)]

Resp:
1. 128 µg/mL
2. 128 µg/mL
